The reader will find reported MIC values listed item by item below.
Test system: Histoplasma capsulatum
ASSAY NOTES: Antifungal activity against Histoplasma capsulatum assessed as growth inhibition by standard broth dilution method
Type: functional
Answer format: numeric, µg/mL implied, no suffix.

Worked cases, MIC given:
INSERT INTO measurements (molecule, readout_kind, units_symbol, reported_measurement) VALUES
  ('CC[C@H]1O[C@@H](/C(C)=C/[C@H](C)/C=C/[C@H]2[C@@H](C)[C@@H]2/C=C/[C@@H]2O[C@H](CC(=O)OC)C[C@@H]3OC(=O)O[C@@H]23)CC=C1C (relative stereo)', 'MIC', 'µg/mL', 0.78),
  ('CC[C@H]1O[C@@H](/C(C)=C/[C@H](C)/C=C/[C@H]2[C@@H](C)[C@@H]2/C=C/[C@@H]2O[C@H](CC(=O)OC)C[C@H](OC(=O)Nc3ccc(Cl)cc3)[C@H]2OC(=O)Nc2ccc(Cl)cc2)CC=C1C', 'MIC', 'µg/mL', 50);

Now let's try a different one.
Retrieve MIC on Histoplasma capsulatum; query CC[C@H]1O[C@@H](/C(C)=C/[C@H](C)/C=C/[C@H]2[C@@H](C)[C@@H]2/C=C/[C@@H]2O[C@H](CC(=O)N3CCCC3)C[C@H](OC(C)=O)[C@H]2OC(C)=O)CC=C1C
50

====

Test system: Histoplasma capsulatum
ASSAY NOTES: Antifungal activity against Histoplasma capsulatum assessed as growth inhibition by standard broth dilution method
Format: functional
Assign labels as follows, please: 1 for MIC below 3 mg/L; 0 for MIC equal to or exceeding 3 mg/L.

INSERT INTO assay_data (compound, label) VALUES
  ('CCCC(=O)O[C@H]1[C@H](/C=C/[C@H]2[C@H](C)[C@@H]2/C=C/[C@@H](C)/C=C(\C)[C@H]2CC=C(C)[C@@H](CC)O2)O[C@H](CC(=O)O)C[C@@H]1OC(=O)CCC', 0),
  ('CC[C@H]1O[C@@H](/C(C)=C/[C@H](C)/C=C/[C@H]2[C@@H](C)[C@@H]2/C=C/[C@@H]2O[C@H](CC(=O)O)C[C@H](O)[C@H]2O)CC=C1C (relative stereo)', 1);

Consider CC[C@H]1O[C@@H](/C(C)=C/[C@H](C)/C=C/[C@H]2[C@@H](C)[C@@H]2/C=C/[C@@H]2O[C@H](CC(=O)O)C[C@H](OC=O)[C@H]2OC=O)CC=C1C . Does its MIC lie strictly below 3 mg/L?
1

Consider CC[C@H]1O[C@@H](/C(C)=C/[C@H](C)/C=C/[C@H]2[C@@H](C)[C@@H]2/C=C/[C@@H]2O[C@H](CC(=O)OC)C[C@H](OC=O)[C@H]2OC=O)CC=C1C . Does its MIC lie strictly below 3 mg/L?
0

Consider CC[C@H]1O[C@@H](/C(C)=C/[C@H](C)/C=C/[C@H]2[C@@H](C)[C@@H]2/C=C/[C@@H]2O[C@H](CC(=O)NC3CCCCC3)C[C@H](OC(C)=O)[C@H]2OC(C)=O)CC=C1C . Does its MIC lie strictly below 3 mg/L?
0

Consider CC[C@H]1O[C@@H](/C(C)=C/[C@H](C)/C=C/[C@H]2[C@@H](C)[C@@H]2/C=C/[C@@H]2O[C@H](CC(=O)N3CCCC3)C[C@H](O)[C@H]2O)CC=C1C . Does its MIC lie strictly below 3 mg/L?
1
